Test system: A549
assay: Induction of p53 protein expression in human A549 cells at 20 uM after 72 hrs by Western blot relative to untreated control
Type: functional

| smiles | fold change (FC) |
| --- | --- |
| O=C1NC(=O)N(CCc2cccc(Cl)c2)/C1=C\c1ccccc1 | 2.2 |
| O=C1NC(=O)N(CCc2ccccc2)/C1=C\c1ccc(O)cc1 | 2.7 |
| O=C1NC(=O)N(CCc2ccccc2)/C1=C\c1cccc(Cl)c1 | 1.9 |
| O=C1NC(=O)N(CCc2ccccc2)/C1=C/c1ccc(O)cc1 | 3.2 |
| O=C1NC(=O)N(Cc2ccccc2)/C1=C\c1ccccc1 | 2.6 |

Reference source: ChEMBL document CHEMBL1153566
